Attribution: ChEMBL document CHEMBL5058577

# System: Fibroblast
# MEASUREMENT_NOTES: Multiplex assay against human fibroblast
# Type: toxicity, cell-based
# EXPERIMENTAL_SETUP: 48 h, 1 µM, compound concentration 1 uM, replicate 1
MEASUREMENT_NAME: Population Pyknosed Nuclei (%)
Entry format: amount then unit.

// below: answered compounds
COMPOUND: COc1cc(C(=O)N(CCCc2ccccc2)Cc2ccc(CC(=O)O)cc2)cc(OC)c1C
TARGET_ENTITY: Fibroblast
Population Pyknosed Nuclei (%): 6%

COMPOUND: Cc1nc2ccc(Oc3ccc(F)cc3)cc2c(=O)n1C[C@H]1CCCN(C(C)C)C1.Cl
TARGET_ENTITY: Fibroblast
Population Pyknosed Nuclei (%): 8%

COMPOUND: O=C(O)Cc1ccccc1Nc1c(Cl)cccc1Cl
TARGET_ENTITY: Fibroblast
Population Pyknosed Nuclei (%): 16%

Then this compound:
Problem: Data request, read-out Population Pyknosed Nuclei (%), for CCCn1c(=O)c2[nH]c(C3CCCC3)nc2n(CCC)c1=O
Result: 12%
